The values you see were collected from patent EP0179667B1.

- Test system: Swiss-Webster male mice
- ASSAY PROTOCOL: Mouse Activity and Screen Test Procedure (MAST): locomotor activity in actophotometer
- Format: in vivo
- CONDITION CONTEXT: 0.3 mg/kg intraperitoneally, one hour prior to testing
PROPERTY NAME: Inhibition of mouse locomotor activity (%)
The response must be a number in % with no trailing unit.

The cases that follow already have their Inhibition of mouse locomotor activity on record.
COc1cccc2c1CCC[C@@H]2Nc1ncnc2c1ncn2[C@@H]1O[C@H](CO)[C@@H](O)[C@H]1O | −19
CC(=O)OC[C@H]1O[C@@H](n2cnc3c(NC4CCCc5ccccc54)ncnc32)[C@H](O)[C@@H]1O (stereo partly shown) | 46
OC[C@H]1O[C@@H](n2cnc3c(NCC4CCc5ccccc54)ncnc32)[C@H](O)[C@@H]1O (stereo partly shown) | −19

Param readout = Inhibition of mouse locomotor activity; param system = Swiss-Webster male mice; param query = OC[C@H]1O[C@@H](n2cnc3c(NC4CCCc5ccccc54)ncnc32)[C@H](O)[C@@H]1O (stereo partly drawn) [Example 2, (R)-N^6-[1-Tetralinyl]-adenosine] ; response: value
45

Cool, now COc1ccc2c(c1)C(Nc1ncnc3c1ncn3[C@@H]1O[C@H](CO)[C@@H](O)[C@H]1O)CCC2 (single isomer, unassigned)
25

###

- System: Swiss-Webster male mice
- ASSAY PROTOCOL: Mouse Activity and Screen Test Procedure (MAST): locomotor activity in actophotometer
- Assay type: in vivo
- CONDITION CONTEXT: 1 mg/kg intraperitoneally, one hour prior to testing
Each entry below carries its reported Inhibition of mouse locomotor activity.
The response must be a number in % with no trailing unit.

Bench note: what Inhibition of mouse locomotor activity did OC[C@H]1O[C@@H](n2cnc3c(NC4CCCc5ccccc54)ncnc32)[C@H](O)[C@@H]1O (stereo partly drawn) [Example 2, (R)-N^6-[1-Tetralinyl]-adenosine] show?
79

Cool, now OC[C@H]1O[C@@H](n2cnc3c(NC4CCCc5ccccc54)ncnc32)C(O)[C@@H]1O (stereo in doubt) [Example 1, (R,S)-N^6-[1-Tetralinyl]-adenosine]
86

Cool, now COc1ccc2c(c1)C(Nc1ncnc3c1ncn3[C@@H]1O[C@H](CO)[C@@H](O)[C@H]1O)CCC2 (single isomer, unassigned) [Example 5, N6-[1-(7-Methoxy)-tetralinyl]-adenosine]
39

###

- TARGET OR SYSTEM: adenosine A1 receptor (Rattus norvegicus)
- Construct: Whole brain minus cerebellum and brainstem from male Long Evans rats (150-200 g) was homogenized
- Sequence (P25099 whole entry): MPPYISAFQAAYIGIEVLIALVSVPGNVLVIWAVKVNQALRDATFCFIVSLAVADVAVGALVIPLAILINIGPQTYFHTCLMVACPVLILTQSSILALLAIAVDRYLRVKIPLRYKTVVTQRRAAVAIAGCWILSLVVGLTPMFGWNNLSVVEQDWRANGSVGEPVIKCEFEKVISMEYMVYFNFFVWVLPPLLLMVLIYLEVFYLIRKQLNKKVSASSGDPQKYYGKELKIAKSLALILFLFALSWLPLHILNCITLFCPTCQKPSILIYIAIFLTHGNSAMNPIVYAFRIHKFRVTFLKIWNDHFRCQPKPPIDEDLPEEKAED
- ASSAY PROTOCOL: Adenosine Receptor Binding - A1 Receptor Affinity (RBA1)
- CONDITION CONTEXT: [3H]-CHA, rat whole brain membranes; read-out: RBA-1
- Procedure: Adenosine Receptor Binding - A1 Receptor Affinity (RBA1) […] Tissue homogenate (10 mg/ml) was incubated in 0.05 M Tris-HCI buffer pH 7.7 containing 1.0 nM [^3H]-N^6-cyclohexyladenosine (^3H]-CHA) with or without test agents in triplicate for one hour at 25°C. […] The radio-labeled ligand retained on the filter was measured by liquid scintillation spectrophotometry after shaking the filters for one hour or longer on a mechanical shaker in 10 ml of Beckman Ready Solv HP scintillation cocktail. […]
PROPERTY NAME: pIC50
Scale: pIC50 equals -log10([C]), with [C] in mol/L.

CC1(C)O[C@@H]2[C@H](O1)[C@@H](CO)O[C@H]2n1cnc2c(NC3CCCc4ccccc43)ncnc21 (stereo partly drawn) [Example 12] | 4.65
COc1cccc2c1CCC[C@@H]2Nc1ncnc2c1ncn2[C@@H]1O[C@H](CO)[C@@H](O)[C@H]1O [Example 10] | 7.72
OC[C@H]1O[C@@H](n2cnc3c(NC4CCCc5c(O)cccc54)ncnc32)[C@H](O)[C@@H]1O (stereo partly drawn) [Example 16, N^6-[1-(5-hydroxy)-tetralinyl]-adenosine] | 7.44

Bench note: what pIC50 did OC[C@H]1O[C@@H](n2cnc3c(NC4CCCc5ccccc54)ncnc32)[C@H](O)[C@@H]1O (stereo partly drawn) [Example 2, (R)-N^6-[1-Tetralinyl]-adenosine] show?
7.36

Cool, now COc1cccc2c1CCCC2Nc1ncnc2c1ncn2[C@@H]1O[C@H](CO)[C@@H](O)[C@H]1O (stereo partly drawn) [Example 7]
7.38

Cool, now COc1ccc2c(c1)C(Nc1ncnc3c1ncn3[C@@H]1O[C@H](CO)[C@@H](O)[C@H]1O)CCC2 (single isomer, unassigned) [Example 5, N6-[1-(7-Methoxy)-tetralinyl]-adenosine]
7.40

Cool, now OC[C@H]1O[C@@H](n2cnc3c(NCC4(O)CCc5ccccc54)ncnc32)[C@H](O)[C@@H]1O (stereo partly drawn) [Example 25]
6.92

Cool, now OC[C@H]1O[C@H](n2cnc3c(NC4CCCc5ccccc54)ncnc32)[C@H](O)[C@@H]1O (stereo partly drawn) [Example 3, (S)-N^6-[1-Tetralinyl]-adenosine]
6.39

Cool, now Cc1cc(C)c2c(c1)C(Nc1ncnc3c1ncn3[C@@H]1O[C@H](CO)[C@@H](O)[C@H]1O)CCC2 (stereo partly drawn) [Example 18]
7.70

Cool, now OC[C@H]1O[C@@H](n2cnc3c(NC4CCCc5ccc(O)cc54)ncnc32)[C@H](O)[C@@H]1O (stereo partly drawn) [Example 17]
7.15

###

- Tested on: Swiss-Webster male mice
- ASSAY PROTOCOL: Mouse Activity and Screen Test Procedure (MAST): screen test (ST)
- Assay type: in vivo
- CONDITION CONTEXT: 10 mg/kg intraperitoneally, one hour postinjection
# if measured Screen test failure < 10%: t  # else: f

Example entries begin here.
OC[C@H]1O[C@@H](n2cnc3c(NCC4(O)CCCCc5ccccc54)ncnc32)[C@H](O)[C@@H]1O (stereo partly drawn) | f
OC[C@H]1O[C@@H](n2cnc3c(NC4CCCc5ccc(O)cc54)ncnc32)[C@H](O)[C@@H]1O (stereo partly drawn) | t
OC[C@H]1O[C@@H](n2cnc3c(NCC4(O)CCCc5ccccc54)ncnc32)[C@H](O)[C@@H]1O (stereo partly drawn) | t

Given CC(=O)OC[C@H]1O[C@@H](n2cnc3c(NC4CCCc5ccccc54)ncnc32)[C@H](O)[C@@H]1O (stereo partly drawn) , is recorded Screen test failure strictly lower than 10%?
f

Cool, now COc1ccc2c(c1)C(Nc1ncnc3c1ncn3[C@@H]1O[C@H](CO)[C@@H](O)[C@H]1O)CCC2 (single isomer, unassigned) [Example 8]
f

Cool, now OC[C@H]1O[C@@H](n2cnc3c(NC4CCCc5ccccc54)ncnc32)C(O)[C@@H]1O (stereo in doubt) [Example 1, (R,S)-N^6-[1-Tetralinyl]-adenosine]
f

Cool, now OC[C@H]1O[C@@H](n2cnc3c(NCC4=CCc5ccccc54)ncnc32)[C@H](O)[C@@H]1O [Example 22, N^6-[1H-inden-3-yl]methyladenosine]
f

Cool, now CC(=O)Oc1ccccc1C(=O)OC[C@H]1O[C@@H](n2cnc3c(NC4CCCc5ccccc54)ncnc32)[C@H](O)[C@@H]1O (stereo partly drawn)
t

Cool, now OC[C@H]1O[C@H](n2cnc3c(NC4CCCc5ccccc54)ncnc32)[C@H](O)[C@@H]1O (stereo partly drawn) [Example 3, (S)-N^6-[1-Tetralinyl]-adenosine]
t

Cool, now OC[C@H]1O[C@@H](n2cnc3c(NCC4(O)CCc5ccccc54)ncnc32)[C@H](O)[C@@H]1O (stereo partly drawn)
f

Cool, now COc1cccc2c1CCCC2Nc1ncnc2c1ncn2[C@@H]1O[C@H](CO)[C@@H](O)[C@H]1O (stereo partly drawn)
f

Cool, now "COc1cccc2c1CCC[C@@H]2Nc1ncnc2c1ncn2[C@@H]1O[C@H](CO)[C@@H](O)[C@H]1O"
f

###

Each entry below carries its reported Screen test failure.
- Tested on: Swiss-Webster male mice
- ASSAY PROTOCOL: Mouse Activity and Screen Test Procedure (MAST): screen test (ST)
- Type: in vivo
- CONDITION CONTEXT: 30 mg/kg intraperitoneally, one hour postinjection
The response must be a number in % with no trailing unit.

COc1cccc2c1CCC[C@@H]2Nc1ncnc2c1ncn2[C@@H]1O[C@H](CO)[C@@H](O)[C@H]1O | 66

Bench note: what Screen test failure did OC[C@H]1O[C@@H](n2cnc3c(NC4CCCc5ccccc54)ncnc32)[C@H](O)[C@@H]1O (stereo partly drawn) [Example 2, (R)-N^6-[1-Tetralinyl]-adenosine] show?
66

Cool, now OC[C@H]1O[C@@H](n2cnc3c(NC4CCCc5ccccc54)ncnc32)C(O)[C@@H]1O (stereo in doubt) [Example 1, (R,S)-N^6-[1-Tetralinyl]-adenosine]
22

Cool, now "OC[C@H]1O[C@@H](n2cnc3c(NCC4=CCCc5ccccc54)ncnc32)[C@H](O)[C@@H]1O"
11

Cool, now COc1cccc2c1CCCC2Nc1ncnc2c1ncn2[C@@H]1O[C@H](CO)[C@@H](O)[C@H]1O (some centres unmarked)
66

###

- TARGET OR SYSTEM: adenosine A2 receptor (Rattus norvegicus)
- Sequence (P30543 whole entry): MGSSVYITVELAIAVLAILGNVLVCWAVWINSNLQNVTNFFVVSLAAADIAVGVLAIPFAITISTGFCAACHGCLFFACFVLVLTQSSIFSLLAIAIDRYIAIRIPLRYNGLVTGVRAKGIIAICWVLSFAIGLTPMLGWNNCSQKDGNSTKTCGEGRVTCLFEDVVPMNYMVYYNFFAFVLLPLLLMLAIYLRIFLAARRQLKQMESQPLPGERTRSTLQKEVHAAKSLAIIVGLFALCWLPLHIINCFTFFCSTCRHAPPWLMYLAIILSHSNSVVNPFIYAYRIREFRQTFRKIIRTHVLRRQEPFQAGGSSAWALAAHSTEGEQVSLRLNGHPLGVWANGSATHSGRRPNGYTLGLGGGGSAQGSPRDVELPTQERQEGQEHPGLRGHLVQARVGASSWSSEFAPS
Each entry below carries its reported log10(IC50).
Base-10 log of IC50, unit µM.

COc1cccc2c1CCCC2Nc1ncnc2c1ncn2[C@@H]1O[C@H](CO)[C@@H](O)[C@H]1O (stereo partly drawn) | -0.49
OC[C@H]1O[C@@H](n2cnc3c(NC4CCCc5ccccc54)ncnc32)C(O)[C@@H]1O (stereo in doubt) [Example 1, (R,S)-N^6-[1-Tetralinyl]-adenosine] | -0.32
COc1ccc2c(c1)CCCC2Nc1ncnc2c1ncn2[C@@H]1O[C@H](CO)[C@@H](O)[C@H]1O (stereo partly drawn) [Example 6, N^6-[1-(6-Methoxy)-tetralinyl]-adenosine] | 0.64

Bench note: what log10(IC50) did CC1CCc2ccccc2C1Nc1ncnc2c1ncn2[C@@H]1O[C@H](CO)[C@@H](O)[C@H]1O (stereo partly drawn) [Example 4, N^6-[1-(2-Methyl)-tetralinyl]-adenosine] show?
-0.28

Cool, now CC(=O)Oc1ccccc1C(=O)OC[C@H]1O[C@@H](n2cnc3c(NC4CCCc5ccccc54)ncnc32)[C@H](O)[C@@H]1O (stereo partly drawn)
1.76

Cool, now OC[C@H]1O[C@@H](n2cnc3c(NCC4CCc5ccccc54)ncnc32)[C@H](O)[C@@H]1O (stereo partly drawn)
-1.00
